# Test system: MDA-MB-231 breast
# TEST_SUMMARY: NCI tumour cell line growth inhibition, 48 h
# log10(TGI) listing for each entry below
RECORDED_ENDPOINT: log10(TGI) (log10 of the value in µM)

>  <COMPOUND>
[N-]=[N+]=NCCCn1c2c(c3ccc([N+](=O)[O-])cc3c1=O)C(=O)c1ccccc1-2

>  <STUDY_SYSTEM>
MDA-MB-231 breast

>  <log10(TGI)>
1.64

$$$$
>  <COMPOUND>
CNC(=O)OCc1nc(SSC(C)(C)C)n(C)c1COC(=O)NC

>  <STUDY_SYSTEM>
MDA-MB-231 breast

>  <log10(TGI)>
0.84

$$$$
>  <COMPOUND>
CN(C)C/C=C/C(=O)Nc1ccc(C(=O)N[C@@]2(C)CCC[C@@H](Nc3ncc(Cl)c(-c4c[nH]c5ccccc45)n3)C2)nc1

>  <STUDY_SYSTEM>
MDA-MB-231 breast

>  <log10(TGI)>
0.09

$$$$
>  <COMPOUND>
Cc1ccc(C2=C(c3ccc(C)cc3)C3(c4ccc(C)cc4)C4C(=O)OC(=O)C4C2(c2ccc(C)cc2)S3=O)cc1 (configuration not stated)

>  <STUDY_SYSTEM>
MDA-MB-231 breast

>  <log10(TGI)>
1.66

$$$$
>  <COMPOUND>
COc1ccc2nc(N/N=C/c3sccc3C)cc(C)c2c1

>  <STUDY_SYSTEM>
MDA-MB-231 breast

>  <log10(TGI)>
1.21

$$$$
>  <COMPOUND>
CC(C)CCNC(=O)c1ccc(CNC(=O)/C=C/c2cccc(Oc3ccccc3)c2)cc1

>  <STUDY_SYSTEM>
MDA-MB-231 breast

>  <log10(TGI)>
1.89

$$$$
>  <COMPOUND>
O=C1/C(=C\c2ccc([N+](=O)[O-])cc2)N(S(=O)(=O)c2ccccc2)c2ncccc21

>  <STUDY_SYSTEM>
MDA-MB-231 breast

>  <log10(TGI)>
1.58

$$$$
>  <COMPOUND>
Nc1n[nH]c2cccc(C#Cc3cccc(NC(=O)c4cccc(C(F)(F)F)c4)c3)c12

>  <STUDY_SYSTEM>
MDA-MB-231 breast

>  <log10(TGI)>
0.81

$$$$
>  <COMPOUND>
CS(=O)(=O)CCNCc1coc(-c2ccc3ncnc(Nc4ccc(OCc5ccccc5)cc4)c3c2)c1

>  <STUDY_SYSTEM>
MDA-MB-231 breast

>  <log10(TGI)>
0.92

$$$$
>  <COMPOUND>
CNC(=O)OCc1c(COC(=O)NC)c(-c2ccc(-c3ccccc3)cc2)n(C)c1C

>  <STUDY_SYSTEM>
MDA-MB-231 breast

>  <log10(TGI)>
1.01

$$$$
>  <COMPOUND>
Cc1cc(Cl)ccc1OCC(=O)Nc1nc2c(Cl)cccc2s1

>  <STUDY_SYSTEM>
MDA-MB-231 breast

>  <log10(TGI)>
1.96

$$$$
>  <COMPOUND>
COc1cccc2c1C(=N)c1c(O)c3c(c(O)c1C2=O)C[C@@](O)(C(C)=O)C[C@@H]3O[C@H]1C[C@H](N)[C@H](O)[C@H](C)O1

>  <STUDY_SYSTEM>
MDA-MB-231 breast

>  <log10(TGI)>
0.89

$$$$
>  <COMPOUND>
Cc1n(CC(C)C)c2c([n+]1C)C(=O)c1ccccc1C2=O

>  <STUDY_SYSTEM>
MDA-MB-231 breast

>  <log10(TGI)>
-0.46

$$$$
>  <COMPOUND>
CN(C)Cc1cc(C(F)(F)F)ccc1C(O)(c1ccccc1)c1ccccc1

>  <STUDY_SYSTEM>
MDA-MB-231 breast

>  <log10(TGI)>
1.39

$$$$
>  <COMPOUND>
C#CCn1c(=O)c(I)cn(/C(=C/C(=O)OCC)C(=O)OCC)c1=O

>  <STUDY_SYSTEM>
MDA-MB-231 breast

>  <log10(TGI)>
1.47

$$$$

Values from PubChem BioAssay (NCI)
